Recorded measurements of Compound Remaining (% of 0 min), 5 min, one per entry
method.notes: Microsomal metabolic stability
experimental.setup: human liver microsomes, 5 min
Method: Half-life (t1/2) values were measured at five time points. Intrinsic clearance values (CLint) with standard error and t1⁄2 values were measured. The final incubation volume was 50 μL. […] Following protein precipitation, the sample supernatants were combined in cassettes of up to 4 compounds, the internal standard was added, and samples were analysed using Cyprotex generic LC-MS/MS conditions. […]
attribute.measured: Compound Remaining (% of 0 min), 5 min

1) Cl.NCC(c1ccc(Cl)cc1)c1ccc(OC(F)(F)F)cc1 (stereo not drawn) [5g]    99.0 % of 0 min
2) Cl.NCC(c1ccc(OC(F)(F)F)cc1)c1ccc(OC(F)(F)F)cc1 [5h]    102 % of 0 min
3) CC(C)(C)c1ccc(C(CN)c2ccc(OC(F)(F)F)cc2)cc1 (stereo not drawn) [5a]    95.8 % of 0 min
4) CC(C)(C)c1ccc(C(CN)c2ccc(C(C)(C)C)cc2)cc1.Cl [5f]    97.2 % of 0 min
5) CC(C)(C)c1ccc(C(CN)c2ccc(F)cc2)cc1.Cl (stereo not drawn) [5c]    94.7 % of 0 min
6) CC(C)(C)c1ccc(C(CN)c2ccc(Cl)cc2)cc1 (stereo not drawn) [Compound I]    89.4 % of 0 min

###

method.notes: Microsomal metabolic stability
experimental.setup: human liver microsomes, 30 min
Recorded measurements of Compound Remaining (% of 0 min), 30 min, one per entry
attribute.measured: Compound Remaining (% of 0 min), 30 min

1. CC(C)(C)c1ccc(C(CN)c2ccc(OC(F)(F)F)cc2)cc1 (stereo not drawn)    86.0 % of 0 min
2. CC(C)(C)c1ccc(C(CN)c2ccc(Cl)cc2)cc1 (stereo not drawn)    77.9 % of 0 min
3. CC(C)(C)c1ccc(C(CN)c2ccc(F)cc2)cc1.Cl (stereo not drawn)    86.1 % of 0 min
4. Cl.NCC(c1ccc(Cl)cc1)c1ccc(OC(F)(F)F)cc1 (stereo not drawn)    86.8 % of 0 min
5. Cl.NCC(c1ccc(OC(F)(F)F)cc1)c1ccc(OC(F)(F)F)cc1    100 % of 0 min
6. CC(C)(C)c1ccc(C(CN)c2ccc(C(C)(C)C)cc2)cc1.Cl    88.0 % of 0 min

###

Test system: MIAPaCa2
method.notes: Cell viability assay (CellTiter Glo), MIAPaCa2
Format: cell-based
experimental.setup: Homo sapiens, MIA PaCa-2, 72 h incubation, mean of independent triplicate experiments, read-out: In vitro anti-proliferative activity IC50, MIAPaCa2
pIC50: −log10 of the molar value. Where a name gives a salt, the structure may show the parent alone.
Param threshold (5) applies to pIC50; output 1.0 when value >= threshold, 0.0 when value < threshold.

1) CC(C)(C)c1ccc(C(CN)c2cccc(F)c2)cc1 (centres unmarked)    0.0
2) CC(C)(C)c1ccc(C(CN)c2ccc(Cl)cc2)cc1 (centres unmarked)    1.0
3) COc1ccc(C(CN)c2ccc(OC)cc2)cc1    0.0
4) CC(C)(C)c1ccc(C(CN)c2ccc(OC(F)(F)F)cc2)cc1 (centres unmarked)    1.0
5) CC(C)(C)c1ccc(C(CN)c2ccccc2F)cc1 (centres unmarked)    0.0
6) CC(C)(C)c1ccc(C(CN)c2ccc(C(C)(C)C)cc2)cc1.Cl    1.0
7) CC(C)(C)c1ccc(C(CN)c2ccc(F)cc2)cc1.Cl (centres unmarked)    0.0
8) Cl.NCC(c1ccc(Cl)cc1)c1ccc(OC(F)(F)F)cc1 (centres unmarked)    0.0
9) CC(C)(C)c1ccc(C(CN)c2ccc(SC(F)(F)F)cc2)cc1.Cl (centres unmarked)    0.0
10) CN(C)CCN(Cc1ccc(Cl)cc1)c1ccccn1 [C4, chloropyramine hydrochloride, reference compound]    0.0
11) Cl.NCC(c1ccc(OC(F)(F)F)cc1)c1ccc(OC(F)(F)F)cc1    0.0

###

method.notes: Turbidimetric aqueous solubility
Assay type: physicochemical
experimental.setup: turbidimetric, 37 °C, 2 h
attribute.measured: Aqueous solubility (in words)

1) CC(C)(C)c1ccc(C(CN)c2ccc(Cl)cc2)cc1 (stereo not drawn)    high aqueous solubility
2) Cl.NCC(c1ccc(OC(F)(F)F)cc1)c1ccc(OC(F)(F)F)cc1    moderate solubility
3) CC(C)(C)c1ccc(C(CN)c2ccc(F)cc2)cc1.Cl (stereo not drawn)    high aqueous solubility
4) CC(C)(C)c1ccc(C(CN)c2ccc(OC(F)(F)F)cc2)cc1 (stereo not drawn)    moderate solubility

###

method.notes: Microsomal metabolic stability
experimental.setup: human liver microsomes, 45 min
attribute.measured: Compound Remaining (% of 0 min), 45 min

1. CC(C)(C)c1ccc(C(CN)c2ccc(Cl)cc2)cc1 (stereo not drawn)    81.3 % of 0 min
2. Cl.NCC(c1ccc(Cl)cc1)c1ccc(OC(F)(F)F)cc1 (stereo not drawn)    72.8 % of 0 min
3. CC(C)(C)c1ccc(C(CN)c2ccc(C(C)(C)C)cc2)cc1.Cl    80.7 % of 0 min
4. CC(C)(C)c1ccc(C(CN)c2ccc(F)cc2)cc1.Cl (stereo not drawn)    82.5 % of 0 min
5. Cl.NCC(c1ccc(OC(F)(F)F)cc1)c1ccc(OC(F)(F)F)cc1    95.8 % of 0 min
6. CC(C)(C)c1ccc(C(CN)c2ccc(OC(F)(F)F)cc2)cc1 (stereo not drawn)    81.4 % of 0 min

###

Tested on: T47D
method.notes: Cell viability assay (CellTiter Glo), T47D
Type: cell-based, human
experimental.setup: 72 h incubation, mean of independent triplicate experiments, read-out: In vitro anti-proliferative activity IC50, T47D ER+ PR+/- HER-
pIC50: −log10 of the molar value.
attribute.measured: pIC50

1. CC(C)(C)c1ccc(C(CN)c2ccc(C(C)(C)C)cc2)cc1.Cl [5f]    5.34

###

method.notes: Turbidimetric aqueous solubility
Assay type: physicochemical
experimental.setup: buffered aqueous solution (PBS pH 7.4, 1% DMSO), 37 °C, 2 h
attribute.measured: Estimated Precipitation Range, Lower Bound (µM)

1. Cl.NCC(c1ccc(OC(F)(F)F)cc1)c1ccc(OC(F)(F)F)cc1    30
2. CC(C)(C)c1ccc(C(CN)c2ccc(C(C)(C)C)cc2)cc1.Cl    1
3. CC(C)(C)c1ccc(C(CN)c2ccc(F)cc2)cc1.Cl (stereo not shown)    100
4. CC(C)(C)c1ccc(C(CN)c2ccc(SC(F)(F)F)cc2)cc1.Cl (stereo not shown)    3
5. c1cc2ccc3cccc4ccc(c1)c2c34 [pyrene, reference compound]    3
6. CC(C)(C)c1ccc(C(CN)c2ccc(Cl)cc2)cc1 (stereo not shown)    100
7. CC(C)(C)c1ccc(C(CN)c2ccc(OC(F)(F)F)cc2)cc1 (stereo not shown)    30

###

Recorded measurements of Compound Remaining (% of 0 min), 15 min, one per entry
method.notes: Microsomal metabolic stability
experimental.setup: human liver microsomes, 15 min
attribute.measured: Compound Remaining (% of 0 min), 15 min

1) Cl.NCC(c1ccc(Cl)cc1)c1ccc(OC(F)(F)F)cc1 (stereo not drawn)    96.2 % of 0 min
2) CC(C)(C)c1ccc(C(CN)c2ccc(F)cc2)cc1.Cl (stereo not drawn)    95.0 % of 0 min
3) CC(C)(C)c1ccc(C(CN)c2ccc(OC(F)(F)F)cc2)cc1 (stereo not drawn)    92.3 % of 0 min
4) Cl.NCC(c1ccc(OC(F)(F)F)cc1)c1ccc(OC(F)(F)F)cc1    108 % of 0 min
5) CC(C)(C)c1ccc(C(CN)c2ccc(Cl)cc2)cc1 (stereo not drawn)    92.3 % of 0 min
6) CC(C)(C)c1ccc(C(CN)c2ccc(C(C)(C)C)cc2)cc1.Cl    92.2 % of 0 min

###

method.notes: Microsomal metabolic stability
experimental.setup: human, microsomes, pH 7.4
attribute.measured: half-life at 3 μM (h)

1) CC(C)(C)c1ccc(C(CN)c2ccc(C(C)(C)C)cc2)cc1.Cl    2.47

###

tested.system: hERG potassium channel (Homo sapiens, UniProt Q12809)
Sequence (Q12809 whole entry): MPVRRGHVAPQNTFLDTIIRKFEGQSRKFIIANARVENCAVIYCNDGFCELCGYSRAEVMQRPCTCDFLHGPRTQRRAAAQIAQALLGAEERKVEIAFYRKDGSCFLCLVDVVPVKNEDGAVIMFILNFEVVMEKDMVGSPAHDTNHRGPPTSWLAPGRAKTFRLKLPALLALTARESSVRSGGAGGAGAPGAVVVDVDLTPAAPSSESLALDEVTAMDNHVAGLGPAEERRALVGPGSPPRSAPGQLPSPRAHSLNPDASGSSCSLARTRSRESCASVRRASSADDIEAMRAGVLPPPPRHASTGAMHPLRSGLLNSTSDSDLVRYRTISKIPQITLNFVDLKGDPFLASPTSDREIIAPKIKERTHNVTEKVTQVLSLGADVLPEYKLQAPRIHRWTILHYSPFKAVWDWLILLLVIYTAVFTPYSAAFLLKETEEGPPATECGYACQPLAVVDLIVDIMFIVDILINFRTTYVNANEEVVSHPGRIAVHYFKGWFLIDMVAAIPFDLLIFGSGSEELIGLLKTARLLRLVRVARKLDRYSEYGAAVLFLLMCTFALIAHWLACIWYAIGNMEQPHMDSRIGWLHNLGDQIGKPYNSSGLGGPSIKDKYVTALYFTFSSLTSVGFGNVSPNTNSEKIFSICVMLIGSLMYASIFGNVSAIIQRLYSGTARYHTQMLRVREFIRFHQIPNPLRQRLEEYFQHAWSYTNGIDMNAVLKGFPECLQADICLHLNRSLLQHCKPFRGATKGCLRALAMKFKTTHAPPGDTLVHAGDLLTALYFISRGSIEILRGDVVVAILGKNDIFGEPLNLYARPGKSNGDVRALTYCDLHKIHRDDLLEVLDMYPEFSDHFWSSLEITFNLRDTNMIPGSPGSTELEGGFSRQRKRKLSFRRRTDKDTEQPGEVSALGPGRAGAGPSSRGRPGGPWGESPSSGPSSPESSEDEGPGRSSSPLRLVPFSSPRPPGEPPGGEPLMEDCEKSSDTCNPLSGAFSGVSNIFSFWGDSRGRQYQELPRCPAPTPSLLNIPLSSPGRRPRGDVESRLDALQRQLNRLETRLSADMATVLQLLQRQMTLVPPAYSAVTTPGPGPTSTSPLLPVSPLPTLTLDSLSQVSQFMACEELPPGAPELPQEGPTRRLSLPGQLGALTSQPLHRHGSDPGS
method.notes: hERG channel inhibition (IonWorks automated patch clamp, CHO-hERG cells)
Recorded measurements of IC50, one per entry
attribute.measured: IC50 (µM)

1) CC(C)(C)c1ccc(C(CN)c2ccc(OC(F)(F)F)cc2)cc1 (stereo not shown) [5a]    3.59
2) COc1ccc(C(CN)c2ccc(OC)cc2)cc1 [5i]    6.01
3) CC(C)(C)c1ccc(C(CN)c2ccc(Cl)cc2)cc1 (stereo not shown) [Compound I]    5.47

###

method.notes: Microsomal metabolic stability
experimental.setup: human, pooled liver microsomes, pH 7.4
Recorded measurements of microsomal CLint at 3 μM, one per entry
attribute.measured: microsomal CLint at 3 μM (µL/min/mg)

1. Cl.NCC(c1ccc(OC(F)(F)F)cc1)c1ccc(OC(F)(F)F)cc1 [5h]    2.35
2. Cl.NCC(c1ccc(Cl)cc1)c1ccc(OC(F)(F)F)cc1 (stereo not drawn) [5g]    13.9
3. CC(C)(C)c1ccc(C(CN)c2ccc(Cl)cc2)cc1 (stereo not drawn) [Compound I]    9.1
4. CC(C)(C)c1ccc(C(CN)c2ccc(C(C)(C)C)cc2)cc1.Cl [5f]    9.34
5. CC(C)(C)c1ccc(C(CN)c2ccc(OC(F)(F)F)cc2)cc1 (stereo not drawn) [5a]    8.91
6. CC(C)(C)c1ccc(C(CN)c2ccc(F)cc2)cc1.Cl (stereo not drawn) [5c]    8.26

Data provenance: paper PMC7435868
